# Test system: RAW-Dual
# ASSAY INFO: NF-kB SEAP reporter activity, fold change vs agonist alone; higher = enhanced NF-kB activity
# ASSAY CONTEXT: library stock concentration (final ~1000-fold dilution): 10 mM; cytotoxicity flag (confluency mask): not cytotoxic; agonist: MPLA (TLR4) […]
The full ranking holds about 2,900 compounds; the median of “NF-kB SEAP reporter activity, fold change vs agonist alone” is about 0.99, and the highest 2% start at about 2.6. For the sample, the highest values were picked, then their nearest neighbours and some compounds at random.
Item-by-item account of NF-kB SEAP reporter activity
Lab note: jot down the number only; don't add units.

Guide cases for NF-kB SEAP reporter activity, answers given:
[[record]]
molecule = "CN1C2CCC1CC(=O)C2"
tgt = "RAW-Dual"
quantitative_readout = 1.16

[[record]]
molecule = "Cc1sc2c(c1C)C(c1ccc(Cl)cc1)=NC(CC(=O)Nc1ccc(O)cc1)c1nnc(C)n1-2 (centres undefined)"
tgt = "RAW-Dual"
quantitative_readout = 2.56

[[record]]
molecule = "CCNC(=O)CC1N=C(c2ccc(Cl)cc2)c2cc(OC)ccc2-n2c(C)nnc21 (centres undefined)"
tgt = "RAW-Dual"
quantitative_readout = 2.47


Now, please, on to the next molecule.
[ask] What NF-kB SEAP reporter activity value was documented for this molecule, `CC(=O)O.Cc1cc2c(C(C)C)c(O)c(O)c(C=O)c2c(O)c1-c1c(C)cc2c(C(C)C)c(O)c(O)c(C=O)c2c1O` ?
[reply] 0.963

====

# Tested on: RAW-Dual
# ASSAY INFO: NF-kB SEAP reporter activity, fold change vs agonist alone; cytotoxicity flag (confluency mask): not cytotoxic; library stock concentration (final ~1000-fold dilution): 10 mM; higher = enhanced NF-kB activity
# ASSAY CONTEXT: agonist: ODN 1826 (TLR9) 0.5 ug/mL
Over roughly 2,900 compounds, “NF-kB SEAP reporter activity, fold change vs agonist alone” has its median near 0.99; the highest 2% begin near 2.6. For the sample, the highest values were picked, then their nearest neighbours and some compounds at random.
MEASUREMENT LABEL: NF-kB SEAP reporter activity
Number only, please.

[[record]]
molecule = "COc1cc(C2c3cc4c(cc3C(O)C3COC(=O)C23)OCO4)cc(OC)c1O (centres undefined)"
quantitative_readout = 3.47


[ask] Consider the molecule shown here: `O=C(O)CCCc1ccc(N(CCCl)CCCl)cc1` What is its recorded NF-kB SEAP reporter activity?
[reply] 1.04

[ask] What value of NF-kB SEAP reporter activity has been reported for the following molecule? `CCC1(c2c[nH]cn2)Cc2ccccc2C1.Cl`
[reply] 0.745

[ask] Entry COc1ccc2c(c1OC)CN1CCc3cc4c(cc3C1C2)OCO4 (centres undefined) : reported NF-kB SEAP reporter activity = ?
[reply] 1.04
